Origin of the recorded values: the nanobody polyreactivity screen of Harvey et al. (2022)

procedure_summary: yeast display, Sf9 membrane polyspecificity reagent, FACS + sequencing; frameworks hold sequencing errors
metric_name: polyreactivity (PSR sort gate)

In the examples that follow, each entry is paired with its recorded polyreactivity (PSR sort gate).
{"columns": ["sequence_content", "value"],
 "data": [
  ["QVQLVESGGGLVQAGGSLRLSCAASVFTFYLYAMGWDRQAPGKERELVADITKRGGSTDYADSVKGRFTISRDNAKNTVYLQMNSLKPEDTAVYYCAARGPTFGVDYGYWGQGTQVTVSS", "high polyreactivity"],
  ["QVQLVESGGGLVQAGGSLRLSCAASGFTFRYYAMGWYRQAPGKEREFVAAIRSSGTTTSYADSVKGRFTISRDNEKNTVYLQMNSLKPEDTAVYYCAAGYFGPQQYYYWGQGTQVTVSS", "high polyreactivity"],
  ["QVQLVESGGGLVQAGGSLRLSCAASGRTFWINAMGWYRQAPGKERELVAAITRGGRTYADSVKGRFTISRDNAKYTVYLQMNSLKPEDTAVYYCAAESYRLSGHHGYDYWGQCTQVTVSS", "high polyreactivity"],
  ["QVHLVESGGGLVQAGGSLRLSCAASGLIFGGYAMGWDRQAPGKERELVAAISSNSGSTYYADSVKGRFTISRDNAKNTVYLQMNSLKPEDTAVYYCIRYFYQGFDYWGQGTQVTVSS", "high polyreactivity"]
]}

Look up polyreactivity (PSR sort gate) for the entries below, preserving their order.
1. QVQLVESGGGLVQAGVSLRLSCAASGSTFTGTAMGWYIQAPGKERELVASINGSSGSTYYADSVKGRFTISRDNAKNTVYLQMNSLKPEDTAVYYCAKDSFLHFPRVGWVGLEYWGQGTQVTLSS
2. QVQLVESGGGLVQAGGSLRLSCAASGSIFVLNAMGWYRQAPGQERELVAAITNVGSTYYADSVKGRFTISRDNAKNTVYLQMNSLKPEDTAVYYCAAVLPFKYDYWGQGTQVTVSS
3. QVPLVESGGVLVQAGGSLRLSFAASGRIYENAMGWYRQAPVNERELVAVISWSGGSKSYADSVKRRLTISRDNAMNTVYFQMNRLKPEDTAVYYCNAYRLLSRRYYYLGQGTQVTVSS
4. QVQIVESGGFLVQAGGSLRLSCDASGRNIPGYGMGWSRHAPGKERELVAVITSNGGITYYADSVKGRFTISRDYAKNTVYLQMNSLKPEDTAVYYCDAYVIYYEFDSWGQGTQVTVSS
5. QDQHVESGGGLVQAVGSLRLSCAASGRIIVDYAMGWYRQAPGKERDLVATITNGGSTNYADSVKGRFTISRDNAKNTVYLQMNSLKPEDTAVYYCAVDYLLDYYSYIEDYWGQGTQVTVSS
6. QVQLVESGGGLVQAGGSLRLSCDPSGLTFNTYAMGWYRQAPGKERELVAAISSDGSTYYADSVKGRFTITRDNAKNTVYLQMNSLKPEDTAVYYCAATSFWWDLAGYYHWYDYWGQGTQVTVSS

Key:
low polyreactivity
low polyreactivity
low polyreactivity
low polyreactivity
low polyreactivity
high polyreactivity

Exercise: Param item = QVQLQESGGGLVQAGGSLRLSCAASGNIFDADIMGWYRQAPGKERELVASITDGGSTNYADSVKGRFTISRDNAKNSVYLQMNSLLPEDTAVYYCAAIAYPDIPTYFDYDSDYFYWGQGTQVTVSS ; retrieve measured polyreactivity (PSR sort gate).
Key: high polyreactivity
